# TARGET_OR_SYSTEM: human Cdc7/human ASK complex protein (Homo sapiens, UniProt O00311)
# Construct: purchased Carna Biosciences, Inc
# Sequence (O00311 whole entry): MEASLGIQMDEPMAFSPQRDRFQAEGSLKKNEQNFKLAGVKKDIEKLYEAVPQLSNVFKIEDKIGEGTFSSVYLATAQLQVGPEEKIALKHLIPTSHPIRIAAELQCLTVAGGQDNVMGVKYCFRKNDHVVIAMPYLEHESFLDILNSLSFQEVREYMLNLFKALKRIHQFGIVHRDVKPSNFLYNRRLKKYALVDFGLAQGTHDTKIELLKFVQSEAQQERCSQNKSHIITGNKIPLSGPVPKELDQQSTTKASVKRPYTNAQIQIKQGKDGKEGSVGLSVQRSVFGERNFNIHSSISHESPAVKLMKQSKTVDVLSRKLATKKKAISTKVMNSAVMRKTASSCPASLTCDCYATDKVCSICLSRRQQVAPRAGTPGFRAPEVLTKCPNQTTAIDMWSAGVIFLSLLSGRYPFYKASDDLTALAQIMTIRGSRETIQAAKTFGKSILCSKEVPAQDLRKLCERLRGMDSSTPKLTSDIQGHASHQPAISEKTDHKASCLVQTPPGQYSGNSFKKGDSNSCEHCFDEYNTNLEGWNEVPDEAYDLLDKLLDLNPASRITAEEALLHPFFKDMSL
# Sequence (Q9UBU7 whole entry partner): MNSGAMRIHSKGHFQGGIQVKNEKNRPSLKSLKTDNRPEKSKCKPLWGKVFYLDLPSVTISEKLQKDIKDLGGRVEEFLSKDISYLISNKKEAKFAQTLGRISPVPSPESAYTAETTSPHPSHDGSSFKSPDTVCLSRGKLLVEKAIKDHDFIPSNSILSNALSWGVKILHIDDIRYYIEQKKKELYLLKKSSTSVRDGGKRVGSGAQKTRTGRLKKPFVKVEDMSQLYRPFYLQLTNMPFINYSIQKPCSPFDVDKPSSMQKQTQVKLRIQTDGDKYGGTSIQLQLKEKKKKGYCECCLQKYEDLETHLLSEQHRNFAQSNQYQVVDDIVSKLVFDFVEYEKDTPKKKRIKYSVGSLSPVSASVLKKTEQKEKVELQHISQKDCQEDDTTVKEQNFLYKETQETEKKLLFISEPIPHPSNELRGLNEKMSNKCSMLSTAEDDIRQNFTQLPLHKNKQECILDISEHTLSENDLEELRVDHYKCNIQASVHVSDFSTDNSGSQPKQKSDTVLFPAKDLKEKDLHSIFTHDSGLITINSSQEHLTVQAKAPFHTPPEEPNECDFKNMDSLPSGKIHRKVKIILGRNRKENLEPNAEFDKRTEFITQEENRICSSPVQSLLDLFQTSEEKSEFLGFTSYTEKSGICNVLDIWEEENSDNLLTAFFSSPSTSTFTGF
# METHOD_NOTES: Cdc7/ASK enzymatic assay
# Assay type: biochemical
# CONDITION_DETAILS: 5 μM ATP; compared with compound 3
Where a name gives a salt, the structure may show the parent alone.
ENDPOINT_LABEL: Cdc7 inhibitory potency (in words)

Could you share which Cdc7 inhibitory potency (in words) value was measured for CCOC(=O)C1=C(NCc2ccccc2)O/C(=C\c2c[nH]c3ncccc23)C1=O [Compound 32, hydrochloride] ?
some decrease in potency

Could you share which Cdc7 inhibitory potency (in words) value was measured for CCOC(=O)C1=C(NCCc2ccccc2)O/C(=C\c2c[nH]c3ncccc23)C1=O [Compound 33, hydrochloride] ?
some decrease in potency

----------
# TARGET_OR_SYSTEM: human Cdc7/human ASK complex protein (Homo sapiens, UniProt O00311)
# Construct: purchased Carna Biosciences, Inc
# METHOD_NOTES: Cdc7/ASK enzymatic assay
# Assay type: biochemical
# CONDITION_DETAILS: in the presence of 1 mM ATP; without pre-incubation; read-out: Cdc7 IC50
ENDPOINT_LABEL: IC50 (nM)
Note: unit nM is implicit; provide only the numeric part.

Could you share which IC50 value was measured for CCOC(=O)C1=C(Nc2ccccc2Cl)OC(=Cc2c[nH]c3ncccc23)C1=O ?
191

----------
# TARGET_OR_SYSTEM: CLK2 (Homo sapiens, UniProt P49760)
# Sequence (P49760 whole entry): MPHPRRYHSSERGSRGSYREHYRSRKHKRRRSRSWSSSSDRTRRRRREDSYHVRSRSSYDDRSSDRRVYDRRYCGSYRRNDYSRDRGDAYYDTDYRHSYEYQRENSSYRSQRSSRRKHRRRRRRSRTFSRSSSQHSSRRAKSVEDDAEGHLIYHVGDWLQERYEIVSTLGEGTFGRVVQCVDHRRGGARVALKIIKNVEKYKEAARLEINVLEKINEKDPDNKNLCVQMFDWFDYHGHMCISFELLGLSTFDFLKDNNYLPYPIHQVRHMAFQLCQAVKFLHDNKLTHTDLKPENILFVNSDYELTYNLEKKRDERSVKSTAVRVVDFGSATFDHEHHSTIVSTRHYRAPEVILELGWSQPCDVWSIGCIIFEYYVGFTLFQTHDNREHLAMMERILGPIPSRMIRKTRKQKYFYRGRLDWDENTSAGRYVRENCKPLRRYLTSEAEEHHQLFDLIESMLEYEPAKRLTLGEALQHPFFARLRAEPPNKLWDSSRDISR
# METHOD_NOTES: Kinase selectivity IC50, CLK2
# Assay type: biochemical
# CONDITION_DETAILS: 1 mM ATP with preincubation; mean of duplicated assays
ENDPOINT_LABEL: IC50

Could you share which IC50 value was measured for CCOC(=O)C1=C(Nc2ccccc2Cl)OC(=Cc2c[nH]c3ncccc23)C1=O [Compound 13] ?
5.3 nM

----------
# TARGET_OR_SYSTEM: human Cdc7/human ASK complex protein (Homo sapiens, UniProt O00311)
# Construct: purchased Carna Biosciences, Inc
# METHOD_NOTES: Cdc7/ASK enzymatic assay
# Assay type: biochemical
# CONDITION_DETAILS: kinase selectivity table; 1 mM ATP with preincubation; mean of duplicated assays; read-out: IC50 (nM), Cdc7
ENDPOINT_LABEL: IC50 (nM)
Note: unit nM is implicit; provide only the numeric part.

Could you share which IC50 value was measured for CCOC(=O)C1=C(Nc2ccccc2Cl)OC(=Cc2c[nH]c3ncccc23)C1=O ?
0.6

----------
# METHOD_NOTES: In vitro metabolic stability, human liver microsomes
# Type: in vitro ADME
# CONDITION_DETAILS: 30 min treatment of human liver microsomes
Recorded measurements of HLM % (remaining % of parent compound), one per entry
Note: unit % is implicit; provide only the numeric part.

Could you share which HLM % (remaining % of parent compound) value was measured for CCOC(=O)C1=C(Nc2ccccc2C)OC(=Cc2c[nH]c3ncccc23)C1=O ?
53

----------
# TARGET_OR_SYSTEM: GSK3α (Homo sapiens)
# Sequence (P49840 whole entry): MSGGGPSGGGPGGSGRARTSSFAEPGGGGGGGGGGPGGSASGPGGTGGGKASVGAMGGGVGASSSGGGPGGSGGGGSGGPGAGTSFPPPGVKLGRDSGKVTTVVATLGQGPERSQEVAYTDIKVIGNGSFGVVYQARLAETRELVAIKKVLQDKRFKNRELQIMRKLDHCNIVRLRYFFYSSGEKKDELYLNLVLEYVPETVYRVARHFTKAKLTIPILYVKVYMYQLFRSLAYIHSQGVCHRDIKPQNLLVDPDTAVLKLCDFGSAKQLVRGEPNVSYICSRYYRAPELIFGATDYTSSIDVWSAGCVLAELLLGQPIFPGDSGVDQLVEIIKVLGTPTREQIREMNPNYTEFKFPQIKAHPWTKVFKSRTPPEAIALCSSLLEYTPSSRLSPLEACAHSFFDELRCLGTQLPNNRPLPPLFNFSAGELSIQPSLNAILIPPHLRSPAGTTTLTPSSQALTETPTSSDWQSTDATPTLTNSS
# METHOD_NOTES: Kinase selectivity IC50, GSK3α
# Assay type: biochemical
# CONDITION_DETAILS: 1 mM ATP with preincubation; mean of duplicated assays
# Method: To investigate the representative kinase selectivity of these compounds at physiological ATP levels, compound 13 was screened over a panel of 121 kinases in the presence of 1 mM ATP with preincubation method. […] IC50 values of hit kinases were determined to confirm the selectivity of compound 13.
ENDPOINT_LABEL: IC50 (nM)
Note: unit nM is implicit; provide only the numeric part.

Could you share which IC50 value was measured for CCOC(=O)C1=C(Nc2ccccc2Cl)OC(=Cc2c[nH]c3ncccc23)C1=O ?
37
